Tested on: C. elegans N2
PROTOCOL_TEXT: C. elegans growth assay
Parameters: species or system Caenorhabditis elegans
EXPERIMENTAL_CONDITIONS: synchronised L1, 5 days at 20°C; EC50 estimate ± standard error
MEASUREMENT_LABEL: EC50 (µM)
Entry rule: numbers only, all in µM.

Identify EC50 associated with the molecule COCCNc1nc(NCCOc2ccccc2Cl)c2sccc2n1 [OX02926]
87

---

Reported EC50 values follow for various compounds
System: CMT-93 rectal epithelial cells
PROTOCOL_TEXT: Neutral red cytotoxicity assay
Assay type: cell-based
EXPERIMENTAL_CONDITIONS: Mus musculus, CMT93; CMT-93 cells, 72 hours, max 100 μM, n = 8, 95% confidence interval in parentheses
Entry rule: numbers only, all in µM.

Answered examples (3):
# SAMPLE_SMILES, TESTED_SYSTEM, READOUT_NUMBER
records = [
    ("CNc1nc(NCCOc2ccccc2)c2sccc2n1", "CMT-93 rectal epithelial cells", 29),
    ("CNc1nc(NCCOc2ccccc2Cl)c2sccc2n1", "CMT-93 rectal epithelial cells", 21),
    ("COCCNc1nc(NCCOc2ccccc2Cl)c2sccc2n1", "CMT-93 rectal epithelial cells", 21),
]

Pending compound:
Identify EC50 associated with the compound COc1ccccc1CNc1nc(NCCOc2ccccc2Cl)c2sccc2n1
5

---

Test system: CMT-93 rectal epithelial cells
PROTOCOL_TEXT: WST-8 cytotoxicity assay
Assay type: cell-based
EXPERIMENTAL_CONDITIONS: Mus musculus, CMT93; CMT-93 cells, 72 hours, max 100 μM, n = 8, 95% confidence interval in parentheses
MEASUREMENT_LABEL: EC50 (µM)
Entry rule: numbers only, all in µM.

Answered examples (3):
# SAMPLE_SMILES, EC50 [µM]
data = [
    ("CNc1nc(NCCOc2ccccc2Cl)c2sccc2n1", 37),
    ("CNc1nc(NCCOc2ccccc2)c2sccc2n1", 75),
    ("COCCNc1nc(NCCOc2ccccc2Cl)c2sccc2n1", 43),
]

Pending molecule:
Identify EC50 associated with the molecule COc1ccccc1CNc1nc(NCCOc2ccccc2Cl)c2sccc2n1
15

Provenance of the data: paper PMC6062138
